- EXPERIMENT_SUMMARY: Oral bioavailability in Han Wistar rat at 2.3 to […]
- Type: ADME, organism-based
- CONDITION_LABEL: in vivo, at 2.3 to […]
Please use the following bioavailability ranges when assigning a class: low class (below 20%), middle class (20% to below 90%), high class (90% or more)

Problem: Looking at CS(=O)(=O)Cc1ccc(-c2ccc(N3CCOc4ncnc(N)c4C3=O)cc2)c(Cl)c1 , which class would you pick?
Solution: middle class

Problem: Determine which band this compound sits in: Nc1ncnc2c1C(=O)N(c1ccc(-c3ccc(CC(=O)N4CCNC(=O)C4)cc3Cl)cc1)CCO2
Solution: low class

Problem: Lab log: Nc1ncnc2c1C(=O)N(c1ccc(-c3ccccc3F)cc1)CCO2 — assign bioavailability category
Solution: high class

Problem: Lab note: sort Nc1ncnc2c1C(=O)N(c1ccc(-c3ccccc3Cl)cc1)CCO2 into the matching bioavailability band.
Solution: middle class

Problem: For this compound, which bin applies? Cc1ccc(-c2ccc(N3CCOc4ncnc(N)c4C3=O)cc2)c(Cl)c1
Solution: low class

Problem: Which bin should I file Nc1ncnc2c1C(=O)N(c1ccc(-c3ncccc3Cl)cc1)CCO2 under?
Solution: middle class

Problem: Consider CS(=O)(=O)NCc1ccc(-c2ccc(N3CCOc4ncnc(N)c4C3=O)cc2)c(Cl)c1 . To which bioavailability class does it belong?
Solution: middle class

Problem: Form field 'band' for CC(=O)NCc1ccc(-c2ccc(N3CCOc4ncnc(N)c4C3=O)cc2)c(Cl)c1
Solution: high class

Problem: State the band of Nc1ncnc2c1C(=O)N(c1ccc(-c3ccc(C(F)F)cc3Cl)cc1)CCO2
Solution: high class

---

Kindly state hepatocyte CLint for each of the entries shown.
- EXPERIMENT_SUMMARY: in vitro
- CONDITION_LABEL: rat, hepatocytes
API: value field is a number in µL/min/1e6 cells; no unit string.

Problem: Could you tell me which hepatocyte CLint is on file for N#Cc1cccc(-c2ccc(N3CCOc4ncnc(N)c4C3=O)cc2)c1Cl ?
Solution: 4.6

Problem: Give its hepatocyte CLint value. Item: Nc1ncnc2c1C(=O)N(c1ccc(-c3cc(Cl)ccc3Cl)cc1)CCO2
Solution: 9.5

Problem: Any idea what its hepatocyte CLint is? The molecule is NC(=O)Cc1ccc(-c2ccc(N3CCOc4ncnc(N)c4C3=O)cc2)c(Cl)c1
Solution: 35

---

- EXPERIMENT_SUMMARY: in vivo
- CONDITION_LABEL: Han Wistar, rat, iv
Assignment: determine reported clearance for the given compounds.
Answer format: numeric, mL/min/kg implied, no suffix.

Problem: Give the measured clearance of Nc1ncnc2c1C(=O)N(c1ccc(-c3cc(Cl)ccc3Cl)cc1)CCO2 .
Solution: 12

Problem: // clearance lookup, key: Nc1ncnc2c1C(=O)N(c1ccc(-c3cccc(Cl)c3Cl)cc1)CCO2
Solution: 24

Problem: Requested read-out: clearance. Entry: Nc1ncnc2c1C(=O)N(c1ccc(-c3ccccc3Cl)cc1)CCO2
Solution: 21

Problem: Given the compound Nc1ncnc2c1C(=O)N(c1ccc(-c3ccccc3Cl)c(F)c1)CCO2 , what is its reported clearance?
Solution: 18

Problem: // clearance lookup, key: CS(=O)(=O)Cc1ccc(-c2ccc(N3CCOc4ncnc(N)c4C3=O)cc2)c(Cl)c1
Solution: 5

Problem: Recorded clearance for CN(Cc1ccc(-c2ccc(N3CCOc4ncnc(N)c4C3=O)cc2)c(Cl)c1)S(C)(=O)=O , please?
Solution: 5

Problem: Find the recorded clearance belonging to Nc1ncnc2c1C(=O)N(c1ccc(-c3ccccc3F)cc1)CCO2 and report it.
Solution: 7

---

- EXPERIMENT_SUMMARY: physchem
- CONDITION_LABEL: buffer, pH 7.4
I'd be grateful if you could share measured logD for these entries.
Reply with just the number.

Problem: Can you share its logD? I mean this compound: Nc1ncnc2c1C(=O)N(c1ccc(-c3ccccc3Cl)c(F)c1)CCO2
Solution: 3

Problem: Item Cc1ccccc1-c1ccc(N2CCOc3ncnc(N)c3C2=O)cc1 has what recorded logD?
Solution: 2.7

Problem: What value of logD has been reported for the following compound? Nc1ncnc2c1C(=O)N(c1ccc(-c3ccccc3)cc1)CCO2
Solution: 2.4

Problem: What value of logD has been reported for the following compound? Nc1ncnc2c1C(=O)N(c1ccc(-c3ccc(CC(=O)N4CC[C@@H](O)C4)cc3Cl)cc1)CCO2
Solution: 1.1

Problem: Requested field: logD. Item: Cc1cccc(Cl)c1-c1ccc(N2CCOc3ncnc(N)c3C2=O)cc1
Solution: 3.4

Problem: # query: logD of entry Nc1ncnc2c1C(=O)N(c1ccc(-c3ccc(C(F)F)cc3Cl)cc1)CCO2
Solution: 3.2

Problem: Give its logD value. Item: N#Cc1cccc(-c2ccc(N3CCOc4ncnc(N)c4C3=O)cc2)c1Cl
Solution: 2.5

Problem: For the compound shown here, NC(=O)Cc1ccc(-c2ccc(N3CCOc4ncnc(N)c4C3=O)cc2)c(Cl)c1 , give the reported logD.
Solution: 1.3

Problem: Entry under review: CN(Cc1ccc(-c2ccc(N3CCOc4ncnc(N)c4C3=O)cc2)c(Cl)c1)C(=O)CCCN . Reported logD?
Solution: -1

Problem: Return reported logD; argument: Nc1ncnc2c1C(=O)N(c1ccc(-c3ccc(CN4CC[C@H](O)C4=O)cc3Cl)cc1)CCO2
Solution: 1.1

Problem: Look at this compound and give its reported logD. Cc1ccc(-c2ccc(N3CCOc4ncnc(N)c4C3=O)cc2)c(Cl)c1
Solution: 3.5

Problem: State the recorded logD for this entry: Nc1ncnc2c1C(=O)N(c1ccc(-c3c(F)cccc3F)c(F)c1)CCO2
Solution: 2.9

Problem: Suppose we examine the compound CC(=O)N(C)Cc1ccc(-c2ccc(N3CCOc4ncnc(N)c4C3=O)cc2)c(Cl)c1 ; what logD value has been reported?
Solution: 1.9

Problem: Item CS(=O)(=O)NCc1ccc(-c2ccc(N3CCOc4ncnc(N)c4C3=O)cc2)c(Cl)c1 has what recorded logD?
Solution: 1.8

Problem: What value of measured logD is listed for Nc1ncnc2c1C(=O)N(c1ccc(-c3cccc(Cl)c3Cl)cc1)CCO2 ?
Solution: 3.8

Problem: So what does the record say about logD for Nc1ncnc2c1C(=O)N(c1ccc(-c3ccccc3Cl)cc1)CCO2 ?
Solution: 2.9

Problem: // logD lookup, key: Nc1ncnc2c1C(=O)N(c1ccc(-c3ncccc3Cl)cc1)CCO2
Solution: 1.5

Problem: What value of measured logD is listed for CC(=O)NCc1ccc(-c2ccc(N3CCOc4ncnc(N)c4C3=O)cc2)c(Cl)c1 ?
Solution: 1.8

Problem: Given CN(Cc1ccc(-c2ccc(N3CCOc4ncnc(N)c4C3=O)cc2)c(Cl)c1)C(=O)CCN , state its recorded logD.
Solution: -0.5

Problem: Endpoint output: logD of Nc1ncnc2c1C(=O)N(c1ccc(-c3ccc(CC(=O)N4CC(O)C4)cc3Cl)cc1)CCO2 . Value?
Solution: 1.1

Problem: Returns the measured logD for the input compound. Input: Nc1ncnc2c1C(=O)N(c1ccc(-c3ccc(CC(=O)O)cc3Cl)cc1)CCO2
Solution: -0.4

Problem: Return reported logD; argument: N#Cc1cccc(Cl)c1-c1ccc(N2CCOc3ncnc(N)c3C2=O)cc1
Solution: 2.1

Problem: Requested field: logD. Item: Nc1ncnc2c1C(=O)N(c1ccc(-c3c(F)cccc3F)cc1)CCO2
Solution: 2.5

Problem: Return reported logD; argument: CN(Cc1ccc(-c2ccc(N3CCOc4ncnc(N)c4C3=O)cc2)c(Cl)c1)C(=O)CN
Solution: 0.1

Problem: Looking for the measured logD of Nc1ncnc2c1C(=O)N(c1ccc(-c3cc(Cl)ccc3Cl)cc1)CCO2 , can you help?
Solution: 3.7

Problem: Given N#Cc1ccc(-c2ccc(N3CCOc4ncnc(N)c4C3=O)cc2)c(Cl)c1 , state its recorded logD.
Solution: 2.4

Problem: Which logD reading was recorded for the compound Nc1ncnc2c1C(=O)N(c1ccc(-c3ccc(CC(=O)N4CCNC(=O)C4)cc3Cl)cc1)CCO2 ?
Solution: 0.9

---

- EXPERIMENT_SUMMARY: Oral bioavailability in rat at 2 mg/kg
- Type: ADME, organism-based
- CONDITION_LABEL: in vivo
PROPERTY_NAME: bioavailability (%)
Answer with a number only, understood to be in %.

Problem: Give its bioavailability value. Item: Nc1ncnc2c1C(=O)N(c1ccc(-c3ccccc3F)cc1)CCO2
Solution: 93

---

- EXPERIMENT_SUMMARY: Half life in mouse at 2 mg/kg, iv
- Assay type: ADME, organism-based
- Design: dose 2 mg/kg, route intravenous
- CONDITION_LABEL: in vivo
PROPERTY_NAME: half-life (min)
Quick reminder: number only, in min, skip the unit.

Problem: For the compound Nc1ncnc2c1C(=O)N(c1ccc(-c3ccccc3F)cc1)CCO2 , what half-life is on record?
Solution: 210

---

- EXPERIMENT_SUMMARY: Oral bioavailability in mouse at 2 mg/kg
- Assay type: ADME, organism-based
- CONDITION_LABEL: in vivo
PROPERTY_NAME: bioavailability

Problem: Fill in the blank: the reported bioavailability of Nc1ncnc2c1C(=O)N(c1ccc(-c3ccccc3F)cc1)CCO2 is ____.
Solution: > 100%

Origin of the recorded values: ChEMBL document CHEMBL3217691
